- Test Description: Inhibition of Bakers yeast alpha-glucosidase using o-orp-nitrophenyl-glycopyranoside as substrate by Lineweaver-Burk plot method
- Parameters: species or system Saccharomyces cerevisiae
Measurement Kind: pKi
Please note pKi is a logarithmic value: minus log10 of concentration in mol/L. Answer with that number alone.

Known pKi results, listed for orientation:
COc1ccc(NC(=[Se])NCCCCCN2C[C@H](O)[C@@H](O)[C@H](O)[C@H]2CO)cc1 : 4.44
OC[C@@H]1[C@@H](O)[C@H](O)[C@@H](O)CN1CCCCCNC(=[Se])Nc1ccc(Br)cc1 : 4.51

Input: Entry Cc1ccc(NC(=[Se])NCCCCCN2C[C@H](O)[C@@H](O)[C@H](O)[C@H]2CO)cc1 has what pKi?
Output: 4.46
